# Assay target: hGLP-1R (Homo sapiens, UniProt P43220)
# Sequence (P43220 24-463): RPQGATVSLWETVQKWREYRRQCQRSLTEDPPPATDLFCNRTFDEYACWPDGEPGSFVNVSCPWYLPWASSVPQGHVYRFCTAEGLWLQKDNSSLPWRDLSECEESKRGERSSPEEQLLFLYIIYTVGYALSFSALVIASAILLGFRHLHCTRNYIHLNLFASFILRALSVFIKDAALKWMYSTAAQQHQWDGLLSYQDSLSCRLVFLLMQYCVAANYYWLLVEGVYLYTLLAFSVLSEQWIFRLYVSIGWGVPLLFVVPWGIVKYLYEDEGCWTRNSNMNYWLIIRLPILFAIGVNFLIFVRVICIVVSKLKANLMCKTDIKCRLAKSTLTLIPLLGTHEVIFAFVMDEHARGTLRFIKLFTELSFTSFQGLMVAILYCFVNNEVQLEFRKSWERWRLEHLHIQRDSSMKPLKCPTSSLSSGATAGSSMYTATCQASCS
# Assay text: cell-based or functional assay
Metric: cAMP Rel EC50 (receptor-expressing HEK-293 cells, 1% HSA) (nM)

>>> assay_result("YXQGTXTSDYXILLDKKAQXAFIEYLEEGGPSSGAPPPE (non-natural residues; (AEEA)2-γGlu-C18 diacid on Lys; amide; synthetic construct; SITE 2: note = 2-Aminoisobutyric Acid; SITE 6: note = alpha-methyl-2-fluoro-L-phenylalanine; SITE 11: note = alpha-methyl-L-serine; SITE 17: note = Lysine is chemically modified through conjugation of the epsilon-amino group of the Lysine side chain with (2-[2-(2-Amino-ethoxy)-e)) [Example 468]")
30.7
>>> assay_result("YXQGTXTSDYXELLDKKAQXAFIEYLEEGGPSSGAPPPE (Aib, αMeF(2F), αMeS; lipidated Lys; C-terminal amide; synthetic construct; SITE 2: note = 2-Aminoisobutyric Acid; SITE 6: note = alpha-methyl-2-fluoro-L-phenylalanine; SITE 11: note = alpha-methyl-L-serine; SITE 17: note = Lysine is chemically modified through conjugation of the epsilon-amino group of the Lysine side chain with (2-[2-(2-Amino-ethoxy)-e)) [Example 467]")
36.4
>>> assay_result("YXQGTXTSDXXIXLDXKAQXXFIEXLIEGGPSSGEPPPE (synthetic construct; SITE 2: note = 2-Aminoisobutyric Acid; SITE 6: note = alpha-methyl-2-fluoro-L-phenylalanine; SITE 10: note = 3-(4-Pyridyl)-L-alanine; SITE 11: note = alpha-methyl-L-serine; SITE 13: note = alpha-methyl-leucine; SITE 16: note = L-ornithine; SITE 17: note = Lysine is chemically mo) [Example 453]")
20.6
